Just for reference, patent US5736523A is where these values come from.

Parameter: pIC50. Scope: all listed entries.
# Tested on: SKVLB (Ovarian; multidrug resistant)
# experimental_protocol: In vitro cytotoxicity, microculture tetrazolium (MTT) assay, SKVLB
# Format: cell-based, human
# assay_conditions: Homo sapiens
pIC50: −log10 of the molar value.
measured_property: pIC50

>>> reported_result("COC(=O)C1=CC2=C(CO1)C(=O)c1ccccc1C2=O")
4.97
>>> reported_result("COP(=O)(CC(=O)[C@H]1CC2=C(C(=O)c3ccccc3C2=O)[C@H](O[C@H]2C[C@H](NC(=O)C(F)(F)F)[C@H](O)[C@H](C)O2)O1)OC")
4.86
>>> reported_result("COP(=O)(CC(=O)[C@@H]1CC2=C(C(=O)c3ccccc3C2=O)[C@@H](O[C@H]2C[C@H](NC(=O)C(F)(F)F)[C@H](O)[C@H](C)O2)O1)OC")
4.78

* * *

# System: SKVLB (Ovarian; multidrug resistant)
# experimental_protocol: In vitro cytotoxicity, microculture tetrazolium (MTT) assay, SKVLB
# Type: cell-based, human
# assay_conditions: SKVLB, multidrug resistant; read-out: IC50
Assign labels as follows, please: y for IC50 below 4 µM; n for IC50 equal to or exceeding 4 µM.

>>> class_name("CC(=O)O[C@@H]1[C@H](C)O[C@@H](OC2OC(C(C)=O)CC3=C2C(=O)c2ccccc2C3=O)C[C@@H]1OC(C)=O (mixture of isomers) [BCH2118]")
"y"
>>> class_name("CC(=O)C1CC2=C(C(=O)c3ccccc3C2=O)C(OC[C@@H]2CCCN2C(=O)OC(C)(C)C)O1 (mixture of isomers) [BCH2067]")
"y"
>>> class_name("CC(=O)C1CC2=C(C(=O)c3ccccc3C2=O)C(OCC2CCN(C(=O)OC(C)(C)C)CC2)O1.Cl (racemic) [BCH2068, hydrochloride]")
"y"
>>> class_name("CCC1CC2=C(C(=O)c3ccccc3C2=O)C(OC2CC(OC(C)=O)C(OC(C)=O)C(C)O2)O1 (mixture of isomers) [BCH1607]")
"n"
>>> class_name("CC(=O)[C@@H]1CC2=C(C(=O)c3ccccc3C2=O)[C@H](OC2CCC(NC(=O)N(CCCl)N=O)CC2)O1 (mixture of isomers) [BCH2114]")
"y"
>>> class_name("CC(=O)C1CC2=C(C(=O)c3ccccc3C2=O)C(OC2CC(NC(=O)C(F)(F)F)C(NC(=O)C(F)(F)F)C(C)O2)O1 (stereo not shown) [BCH2104]")
"y"
>>> class_name("CC(=O)[C@@H]1CC2=C(C(=O)c3ccccc3C2=O)[C@@H](O[C@@H]2O[C@H](CO)[C@@H](O)[C@H](O)[C@H]2NC(=O)N(CCCl)N=O)O1 [BCH2038]")
"y"
>>> class_name("CC(=O)[C@H]1CC2=C(C(=O)c3ccccc3C2=O)[C@H](OC2C[C@H](NC(=O)C(F)(F)F)[C@H](O)[C@H](C)O2)O1 (stereo partly shown) [BCH1146]")
"n"
>>> class_name("C=CC[C@H]1CC2=C(C(=O)c3ccccc3C2=O)[C@@H](OC2C[C@H](NC(=O)C(F)(F)F)[C@H](O)[C@H](C)O2)O1 (stereo partly shown) [BCH1649]")
"y"
>>> class_name("CC(=O)[C@H]1CC2=C(C(=O)c3ccccc3C2=O)[C@H](O[C@H]2C[C@H](NC(=O)C(F)(F)F)[C@H](OC(=O)CBr)[C@H](C)O2)O1 [BCH2105]")
"y"
>>> class_name("C=CCC1CC2=C(C(=O)c3ccccc3C2=O)C(OC2CC(NC(=O)C(F)(F)F)C(O)C(C)O2)O1 (stereo not shown) [BCH1648]")
"y"
>>> class_name("CC(=O)C1CC2=C(C(=O)c3ccccc3C2=O)C(OC2CC(NC(=O)C(F)(F)F)C(NC(=O)C(F)(F)F)C(C)O2)O1 (stereo not shown) [BCH2102]")
"y"
>>> class_name("CC(=O)C1CC2=C(C(=O)c3ccccc3C2=O)C(OC2CC(NC(=O)C(F)(F)F)C(O)C(C)O2)O1 (stereo not shown) [BCH2145]")
"n"
>>> class_name("CC(=O)OC1C(C)OC(OC2OC(C(C)=O)CC3=C2C(=O)c2ccccc2C3=O)C(I)C1OC(C)=O (mixture of isomers) [BCH2065]")
"n"
>>> class_name("CC(=O)C1CC2=C(C(=O)c3ccccc3C2=O)C(O[C@H]2C[C@H](O)[C@H](O)[C@H](C)O2)O1 (mixture of isomers) [BCH2117]")
"y"
>>> class_name("CC(=O)C1CC2=C(C(=O)c3ccccc3C2=O)C(OC2CC(NC(=O)C(F)(F)F)C(O)C(C)O2)O1 (stereo not shown) [BCH2144]")
"n"

* * *

# Test system: T47D (Ductal carcinoma of breast)
# experimental_protocol: In vitro cytotoxicity, microculture tetrazolium (MTT) assay, T47D
# Format: cell-based, human
# assay_conditions: read-out: IC50
pIC50: −log10 of the molar value.
So basically: pIC50 at 6 or higher? That is Met. Lower than 6? That is Not met.

>>> class_name("CC(=O)C1CC2=C(C(=O)c3ccccc3C2=O)C(OCC2CCN(C(=O)OC(C)(C)C)CC2)O1.Cl (racemic) [BCH2068, hydrochloride]")
"Met"
>>> class_name("CC(=O)C1CC2=C(C(=O)c3ccccc3C2=O)C(OC2CC(NC(=O)C(F)(F)F)C(O)C(C)O2)O1 (stereo not drawn) [BCH2144]")
"Not met"
>>> class_name("C=CCC1CC2=C(C(=O)c3ccccc3C2=O)C(OC2CC(NC(=O)C(F)(F)F)C(O)C(C)O2)O1 (stereo not drawn) [BCH1648]")
"Met"
>>> class_name("CC(=O)C1CC2=C(C(=O)c3ccccc3C2=O)C(OC2CC(NC(=O)C(F)(F)F)C(NC(=O)C(F)(F)F)C(C)O2)O1 (stereo not drawn) [BCH2102]")
"Met"
>>> class_name("CC(=O)O[C@@H]1[C@H](C)O[C@@H](OC2OC(C(C)=O)CC3=C2C(=O)c2ccccc2C3=O)C[C@@H]1OC(C)=O (mixture of isomers) [BCH2118]")
"Met"
>>> class_name("CC(=O)C1CC2=C(C(=O)c3ccccc3C2=O)C(OC[C@@H]2CCCN2C(=O)OC(C)(C)C)O1 (mixture of isomers) [BCH2067]")
"Met"

* * *

# System: HT 29 (Colon adenocarcinoma)
# experimental_protocol: In vitro cytotoxicity, microculture tetrazolium (MTT) assay, HT 29
# Assay type: cell-based, human
# assay_conditions: Homo sapiens, HT-29
pIC50: −log10 of the molar value.
measured_property: pIC50

>>> reported_result("COc1cccc2c1C(=O)c1c(O)c3c(c(O)c1C2=O)C[C@@](O)(C(=O)CO)C[C@@H]3O[C@H]1C[C@H](N)[C@H](O)[C@H](C)O1 [Adriamycin, reference compound]")
7.05
>>> reported_result("COP(=O)(CC(=O)[C@H]1CC2=C(C(=O)c3ccccc3C2=O)[C@H](O[C@H]2C[C@H](NC(=O)C(F)(F)F)[C@H](O)[C@H](C)O2)O1)OC [BCH1690]")
5.52
>>> reported_result("COP(=O)(CC(=O)[C@@H]1CC2=C(C(=O)c3ccccc3C2=O)[C@@H](O[C@H]2C[C@H](NC(=O)C(F)(F)F)[C@H](O)[C@H](C)O2)O1)OC [BCH1689]")
5.44

* * *

# Test system: T47D (Ductal carcinoma of breast)
# experimental_protocol: In vitro cytotoxicity, microculture tetrazolium (MTT) assay, T47D
# Assay type: cell-based, human
# assay_conditions: read-out: IC50
measured_property: IC50 (nM)

>>> reported_result("CC(=O)[C@H]1CC2=C(C(=O)c3ccccc3C2=O)[C@H](OC2C[C@H](NC(=O)C(F)(F)F)[C@H](O)[C@H](C)O2)O1 (stereo partly drawn) [BCH1146]")
5870
>>> reported_result("CC(=O)OC1C(C)OC(OC2OC(C(C)=O)CC3=C2C(=O)c2ccccc2C3=O)C(I)C1OC(C)=O (mixture of isomers) [BCH2065]")
2200
>>> reported_result("CC(=O)C1CC2=C(C(=O)c3ccccc3C2=O)C(OC2CC(NC(=O)C(F)(F)F)C(NC(=O)C(F)(F)F)C(C)O2)O1 (stereo not drawn) [BCH2104]")
613

* * *

# System: HT 29 (Colon adenocarcinoma)
# experimental_protocol: In vitro cytotoxicity, microculture tetrazolium (MTT) assay, HT 29
# Assay type: cell-based, human
# assay_conditions: Homo sapiens, HT-29, HT29; read-out: IC50
measured_property: IC50 (µM)

>>> reported_result("C=CC[C@@H]1CC2=C(C(=O)c3ccccc3C2=O)[C@@H](O[C@H]2C[C@H](NC(=O)C(F)(F)F)[C@H](O)[C@H](C)O2)O1 (mixture of isomers)")
8.5
>>> reported_result("CC(NC(=O)C(F)(F)F)[C@H]1CC2=C(C(=O)c3ccccc3C2=O)[C@H](O[C@H]2C[C@H](O)[C@H](O)[C@H](C)O2)O1 (stereo partly drawn)")
14.2
>>> reported_result("CC(=NO)[C@@H]1CC2=C(C(=O)c3ccccc3C2=O)[C@@H](O[C@H]2C[C@H](NC(=O)C(F)(F)F)[C@H](O)[C@H](C)O2)O1")
5.6
>>> reported_result("COC1OC(C(=O)NCCCn2ccnc2)=CC2=C1C(=O)c1ccccc1C2=O (stereo not drawn)")
1.23
